Target: Prothrombin (Homo sapiens, UniProt P00734); also: assay procedure not described here
Assay type: functional

COMPOUND	AC50
COCc1c(C(C)C)nc(C(C)C)c(/C=C/[C@@H](O)C[C@@H](O)CC(=O)O)c1-c1ccc(F)cc1 [CERIVASTATIN]	> 30 µM
C=CCN1C[C@H](C(=O)N(CCCN(C)C)C(=O)NCC)C[C@@H]2c3cccc4[nH]cc(c34)C[C@H]21 [CABERGOLINE]	> 30 µM
N=C1CCCN1Cc1[nH]c(=O)[nH]c(=O)c1Cl	> 30 µM
C=CCCCCCCCCC(=O)O [UNDECYLENIC ACID]	> 30 µM
CC(=O)Oc1ccc2c(c1)CC[C@@H]1[C@@H]2CC[C@]2(C)[C@@H](O)CC[C@@H]12 [ESTRADIOL ACETATE]	> 30 µM
CC(C)(C)C(=O)C(Oc1ccc(Cl)cc1)n1ccnc1 (stereo not drawn) [CLIMBAZOLE]	> 30 µM
CC(C)C[C@H]1C(=O)N2CCC[C@H]2[C@]2(O)O[C@](NC(=O)[C@@H]3C=C4c5cccc6[nH]c(Br)c(c56)C[C@H]4N(C)C3)(C(C)C)C(=O)N12 [BROMOCRIPTINE]	> 30 µM
CC(C)(C)NC[C@H](O)COc1ccccc1C1CCCC1 [PENBUTOLOL]	> 30 µM
O=C(Oc1ccc2c(c1)CCCN2C(=O)C(Cl)Cl)c1ccco1 [QUINFAMIDE]	> 30 µM
CC(C)COC(=O)OCN1C(=O)CN(CCN2CC(=O)N(COC(=O)OCC(C)C)C(=O)C2)CC1=O [SOBUZOXANE]	> 30 µM
CC[C@@H](C(N)=O)N1CCCC1=O	> 30 µM
CCCCOC(=O)C(=O)[C@H]1[C@H](C)C[C@H]2[C@@H]3C[C@H](F)C4=CC(=O)C=C[C@]4(C)[C@H]3[C@@H](O)C[C@@]21C [FLUOCORTIN BUTYL]	> 30 µM
CCOc1ccccc1C(N)=O [ETHENZAMIDE]	> 30 µM
N[C@H]1C(O)O[C@H](CO)[C@@H](O)[C@@H]1O (stereo partly drawn) [GLUCOSAMINE]	> 30 µM
CCC1=C(C)CN(C(=O)NCCc2ccc(S(=O)(=O)NC(=O)N[C@H]3CC[C@H](C)CC3)cc2)C1=O [GLIMEPIRIDE]	> 30 µM
CC[C@H]1OC(=O)[C@H](C)[C@@H](O[C@H]2C[C@@](C)(OC)[C@@H](O)[C@H](C)O2)[C@H](C)[C@@H](O[C@@H]2O[C@H](C)C[C@H](N(C)C)[C@H]2O)[C@](C)(O)C[C@@H](C)CN(C)[C@H](C)[C@@H](O)[C@]1(C)O [AZITHROMYCIN]	> 30 µM
O=C(CCNNC(=O)c1ccncc1)NCc1ccccc1 [NIALAMIDE]	> 30 µM
NC(=O)C[C@H](N)C(=O)O [ASPARAGINE]	> 30 µM
C[C@]12CC[C@@H]3c4ccc(O)cc4CC[C@H]3[C@@H]1C[C@@H](O)[C@@H]2O [ESTRIOL]	> 30 µM
COc1cc2c3cc1Oc1cc(ccc1O)C[C@@H]1c4c(cc(OC)c(O)c4Oc4ccc(cc4)C[C@@H]3N(C)CC2)CC[N+]1(C)C [TUBOCURARINE]	> 30 µM
O=C(OCC(O)CO)c1ccccc1Nc1ccnc2cc(Cl)ccc12 (stereo not drawn) [GLAFENINE]	> 30 µM
C[N+]1(C)CCC(OC(=O)C(O)(c2ccccc2)C2CCCC2)C1 (stereo not drawn) [GLYCOPYRRONIUM BROMIDE]	> 30 µM
Oc1c(Cl)cc(Cl)c2cccnc12 [CHLOROXINE]	> 30 µM
Nc1ccc2cc3ccc(N)cc3nc2c1 [PROFLAVINE]	9.65 µM
CC(=O)OCC(=O)[C@@]1(O)CC[C@H]2[C@@H]3CCC4=CC(=O)C=C[C@]4(C)[C@@]3(Cl)[C@@H](Cl)C[C@@]21C [DICHLORISONE ACETATE]	> 30 µM
C[N+]1(CCCCC[N+]2(C)CCCC2)CCCC1 [PENTOLINIUM]	> 30 µM
O=C(Nc1ccc(Cl)cc1)Nc1ccc(Cl)c(Cl)c1 [TRICLOCARBAN]	> 30 µM
O=C(Cc1ccc(-c2ccccc2)cc1)Nc1ccccn1 [DIFENPIRAMIDE]	> 30 µM
N[C@@H](C(=O)N[C@@H]1C(=O)N2C(C(=O)O)=C(Cl)CC[C@H]12)c1ccccc1 [LORACARBEF ANHYDROUS]	> 30 µM
NC1=NCC2c3ccccc3Cc3ccccc3N12 (stereo not drawn) [EPINASTINE]	> 30 µM
CC[N+]1(C)[C@@H]2CC(OC(=O)[C@H](CO)c3ccccc3)C[C@H]1[C@@H]1O[C@@H]12 (stereo partly drawn) [OXITROPIUM]	> 30 µM
CN1CCN(C2=Nc3ccccc3Sc3ccc(Cl)cc32)CC1 [CLOTHIAPINE]	> 30 µM
CC1(C)NC(=O)N(c2ccc([N+](=O)[O-])c(C(F)(F)F)c2)C1=O [NILUTAMIDE]	> 30 µM
